Data provenance is paper PMC7937711.

- STUDY TARGET: T1, recombinant mouse Clec4F (CLEC4F/CLECSF13), soluble extracellular domain Ala65-Gly548 (Mus musculus, UniProt P70194)
- T1 construct: Clec4F (C-type lectin domain family 4, member F), mouse, soluble extracellular domain Ala65-Gly548; the oligomeric state of the bought protein was not measured here; also called mClec4F; mouse Kupffer cell receptor Clec4F; source: bought: R&D Systems (NS0-derived, mouse myeloma cell line)
- T1 sequence (P70194 65-548): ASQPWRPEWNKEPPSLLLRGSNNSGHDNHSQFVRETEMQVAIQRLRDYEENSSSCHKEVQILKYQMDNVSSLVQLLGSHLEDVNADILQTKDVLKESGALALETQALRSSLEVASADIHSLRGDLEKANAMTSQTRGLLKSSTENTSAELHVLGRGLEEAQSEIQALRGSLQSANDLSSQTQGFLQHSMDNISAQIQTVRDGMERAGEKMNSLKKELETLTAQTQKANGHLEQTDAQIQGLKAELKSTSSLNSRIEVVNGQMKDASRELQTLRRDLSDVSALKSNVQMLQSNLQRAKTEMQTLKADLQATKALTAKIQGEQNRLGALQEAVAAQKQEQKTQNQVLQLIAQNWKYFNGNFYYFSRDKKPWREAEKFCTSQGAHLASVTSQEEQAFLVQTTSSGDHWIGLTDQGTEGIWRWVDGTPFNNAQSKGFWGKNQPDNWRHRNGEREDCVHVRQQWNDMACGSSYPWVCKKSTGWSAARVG
- PROCEDURE SUMMARY: SPR; Biacore T200; 400 RU of recombinant mouse Clec4F coupled to a CM5 chip; nanobodies flown at 30 ul/min at 1-400 nM; 1:1 binding model
- TEST PARAMETERS: both partners purified
The following binders are shown together with reported kon values.
Numeric answer only, unit M⁻¹ s⁻¹ assumed.

Take a look at these entries with their results.
Nb10.66 (VHH, also called R2-66; group G10; source: E. coli WK6 periplasm, purified (IMAC Ni-NTA, dialysis)) VHH: DVQLVESGGGLVQAGGSLRLSCAASGRTFSDYNMGWFRQAPGKEREFVATISRSGGGTYYSDSVKGRFTISRDNAKNTVYLQMNNLKPEDSAAYYCAATLRVALSTITVGGYNYWGQGTQVTVSS
4.28e+06
Nb6.19 (VHH, also called R2-19; group G6; source: E. coli WK6 periplasm, purified (IMAC Ni-NTA, dialysis)) VHH: DVQLVESGGGLVQPGGSLRLSCAASGFTLSTYAMRWVRQAPGKGLEWVSDINSGGDVMSYRDSVKGRFTISRDDAKNTLYLQMNSLKPEDTAVYYCTNGWSRGQGTQVTVSS
1.3e+06
Nb11.20 (VHH, also called R2-20; group G11; source: E. coli WK6 periplasm, purified (IMAC Ni-NTA, dialysis)) VHH: QVQLVESGGGLVQTGGSLRLSCAASGRTVSSYRMGWFRQAPGKEREFVCMITRSGFKTYCNDSVKGRFTISRDVAVNTVNLQMNSLKPEDTADYYCAATERWGTTATMTTANDYDYWGQGTQVTVSS
3.46e+06
Nb10.16 (VHH, Labelled with 99mTc through its His tag for the biodistribution test only; also called R2-16; group G10; source: E. coli WK6 periplasm, purified (IMAC Ni-NTA, dialysis; size exclusion chromatography for the later tests); not shown: His6, C-terminal, kept) VHH: DVQLVESGGGLVEPGGSLRLSCAASGRTFSDYNMGWFRQAPGKEREFVATISRNGAGSYYTDSVKGRFTISRDNAKNTVYLQMNNLKPEDSAAYYCAATLRVALSTITVGGYDYWGQGTQVTVSS
1.58e+06
Nb11.28 (VHH, also called R3-28; group G11; source: E. coli WK6 periplasm, purified (IMAC Ni-NTA, dialysis)) VHH: QVQLVESGGGLVQAGASLRLSCAASGGTFSNYRMAWFRQAPGKEREFVSLITRSGGSTYYADSVKGRFTISRDNAQNTVSLQMNTLKPEDTAVYTCAATPRFDSGSYYTRTNGYDYWGQGTQVTVSS
5.43e+06

Data request, read-out kon, for Nb10.17 (VHH, also called R3-17; group G10; source: E. coli WK6 periplasm, purified (IMAC Ni-NTA, dialysis)) VHH: QVQLVESGGGLVQAGGSLRLSCAASGRTFDSYNMGWFRQAPGKEREFVATISRSGAGTYYTDSVKGRFTISRDNAKNTMYLQMNNLKPEDSAAYYCAATLRVALSTITVGGYDIWGQGTQVTVSS 9.08e+06

Likewise for Nb13.12 (VHH, also called R3-12; group G13; source: E. coli WK6 periplasm, purified (IMAC Ni-NTA, dialysis)) VHH: QVQLVESGGGLVQDEGSLRLSCAASGLIFSNYIVGWFRQTPGKEREFVAAIRWGGTSSYYSDSVKGRFTVSRDNAKNTLYLQMNNLKPEDTAVYYCATGPYYRGDYRVPDNMDYWGKGTQVTVSS ? 2.79e+06

Likewise for Nb9.15 (VHH, also called R3-15; group G9; source: E. coli WK6 periplasm, purified (IMAC Ni-NTA, dialysis)) VHH: QVQLVESGGGLVQPGGSLRLSCAASGFSLASRTIAWFRQAPGKEREGVSCISRSGAFTNNADSVKGRFTISRDNAKNTVYLQMNSLKPEDTADYYCAVTSSWYSTCLRESIYDSWGQGTQVTVSS ? 1.19e+06
